Provenance of the data: patent US7786171B2

molecular target: human α7 NNR (Homo sapiens, UniProt P36544); construct: expressed in transfected cells; host or cells: Xenopus laevis oocytes (cRNA injection); test: Two-electrode voltage-clamp in Xenopus laevis oocytes, potentiation of ACh-evoked α7 currents; type: cell-based; conditions: 0.1 mM ACh; normalized to reference PAM at 10 μM = 100%, ACh alone = 0%
Sequence (P36544 23-502): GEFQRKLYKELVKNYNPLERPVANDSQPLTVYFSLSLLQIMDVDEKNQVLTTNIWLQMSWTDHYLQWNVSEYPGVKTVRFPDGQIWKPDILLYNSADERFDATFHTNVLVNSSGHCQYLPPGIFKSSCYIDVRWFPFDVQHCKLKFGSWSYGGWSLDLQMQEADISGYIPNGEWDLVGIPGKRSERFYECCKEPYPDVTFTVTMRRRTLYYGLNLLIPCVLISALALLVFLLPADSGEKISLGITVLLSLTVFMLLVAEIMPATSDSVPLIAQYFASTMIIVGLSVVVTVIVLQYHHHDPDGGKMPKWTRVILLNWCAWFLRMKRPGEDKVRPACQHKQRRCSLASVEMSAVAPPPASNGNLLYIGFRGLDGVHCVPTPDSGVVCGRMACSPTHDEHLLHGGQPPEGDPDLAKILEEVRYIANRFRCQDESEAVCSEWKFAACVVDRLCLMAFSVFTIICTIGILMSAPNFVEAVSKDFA
ENDPOINT: Voltage-Clamp in Xenopus laevis Oocytes % max (degree of normalized potentiation) (%)

Some compounds with known Voltage-Clamp in Xenopus laevis Oocytes % max (degree of normalized potentiation) results, for comparison:
> print(dat)
                                   compound  unit.of.measurement  test.value
1  Nc1ccc(CNC(=O)c2ccc(SC(F)(F)F)cc2)cc1 [Example 19]                    %         120
2  CNc1ccc(CNC(=O)c2ccc(SC(F)F)cc2)cc1 [Example 22]                    %         115
3  CNc1ccc(CNC(=O)c2ccc(SC(F)(F)F)cc2)cc1 [Example 20]                    %          99

1: O=C(NCc1cccc(-n2cccn2)c1)c1ccc(SC(F)(F)F)cc1 [Example 12]
2: CN(C)c1ccc(CNC(=O)c2ccc(SC(F)(F)F)cc2)cc1 [Example 17]
3: O=C(Cc1ccc(NCC2CC2)cc1)Nc1ccc(SC(F)F)cc1 [Example 43]
Please list the entries, largest Voltage-Clamp in Xenopus laevis Oocytes % max (degree of normalized potentiation) first. Answer with the labels in sequence, matching the requested order.
2, 1, 3
(2: 94%, 1: 61%, 3: 2%)
